# IC50 listing for each entry below
experimental.system: Prostaglandin G/H synthase 1 (Ovis aries)
Sequence (P05979 whole entry): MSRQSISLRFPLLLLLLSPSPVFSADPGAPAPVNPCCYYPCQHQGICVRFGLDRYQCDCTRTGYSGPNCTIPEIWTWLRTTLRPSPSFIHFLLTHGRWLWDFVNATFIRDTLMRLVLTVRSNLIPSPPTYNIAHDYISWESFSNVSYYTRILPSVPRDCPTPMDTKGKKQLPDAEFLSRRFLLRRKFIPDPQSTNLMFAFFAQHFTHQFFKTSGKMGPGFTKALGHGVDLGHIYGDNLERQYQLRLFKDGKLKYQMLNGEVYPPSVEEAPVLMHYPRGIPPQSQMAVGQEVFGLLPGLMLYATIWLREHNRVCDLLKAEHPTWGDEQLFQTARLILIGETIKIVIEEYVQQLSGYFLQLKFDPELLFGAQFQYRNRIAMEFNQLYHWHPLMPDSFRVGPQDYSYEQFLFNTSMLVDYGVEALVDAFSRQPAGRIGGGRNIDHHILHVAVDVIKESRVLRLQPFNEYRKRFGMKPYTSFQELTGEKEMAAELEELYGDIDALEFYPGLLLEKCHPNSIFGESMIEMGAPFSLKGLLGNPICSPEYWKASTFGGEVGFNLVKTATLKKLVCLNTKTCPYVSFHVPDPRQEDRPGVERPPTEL
assay.text: Inhibition of ovine COX1
outcome.measure: IC50

molecule=CN(c1ccc(N)cc1)S(=O)(=O)c1ccc(Cl)cc1 outcome_measure=IC50 value_measured="9.2 µM"
molecule=Cc1cc(N)ccc1N(C)S(=O)(=O)c1ccc(Cl)cc1 outcome_measure=IC50 value_measured="26 µM"
molecule=COc1cc(N)ccc1N(C)S(=O)(=O)c1ccc(Cl)cc1 outcome_measure=IC50 value_measured="20 µM"

---

experimental.system: Prostaglandin G/H synthase 1 (Ovis aries) (UniProt P05979)
assay.text: Inhibition of ovine COX1 at 100 uM
Kindly return TRUE if reported inhibition is no lower than 20%; return FALSE if it is lower.

molecule=CS(=O)(=O)Nc1ccc(S(=O)(=O)Nc2ccc(C(F)(F)F)cc2)cc1 experimental_system="Prostaglandin G/H synthase 1 (Ovis aries) (UniProt P05979)" classification=FALSE
molecule=Cc1cccc(NS(=O)(=O)c2ccc([N+](=O)[O-])cc2)c1 experimental_system="Prostaglandin G/H synthase 1 (Ovis aries) (UniProt P05979)" classification=FALSE
molecule=Nc1ccc(S(=O)(=O)Nc2cccc(Cl)c2)cc1 experimental_system="Prostaglandin G/H synthase 1 (Ovis aries) (UniProt P05979)" classification=FALSE
molecule=Cc1ccc(NS(=O)(=O)c2ccc(NS(C)(=O)=O)cc2)cc1 experimental_system="Prostaglandin G/H synthase 1 (Ovis aries) (UniProt P05979)" classification=FALSE
molecule=O=C(O)c1ccc(S(=O)(=O)Nc2cc(C(F)(F)F)cc(C(F)(F)F)c2)cc1 experimental_system="Prostaglandin G/H synthase 1 (Ovis aries) (UniProt P05979)" classification=TRUE
molecule=Cc1ccc(NS(=O)(=O)c2ccc(N)cc2)cc1 experimental_system="Prostaglandin G/H synthase 1 (Ovis aries) (UniProt P05979)" classification=TRUE
molecule=O=C(O)c1ccc(S(=O)(=O)Nc2ccccc2)cc1 experimental_system="Prostaglandin G/H synthase 1 (Ovis aries) (UniProt P05979)" classification=FALSE
molecule=Cc1cccc(NS(=O)(=O)c2ccc(NS(C)(=O)=O)cc2)c1 experimental_system="Prostaglandin G/H synthase 1 (Ovis aries) (UniProt P05979)" classification=FALSE
molecule=CN(c1ccc(C(F)(F)F)cc1)S(=O)(=O)c1ccc(N)cc1 experimental_system="Prostaglandin G/H synthase 1 (Ovis aries) (UniProt P05979)" classification=FALSE
molecule=Cc1cc(N)ccc1N(C)S(=O)(=O)c1ccc(Cl)cc1 experimental_system="Prostaglandin G/H synthase 1 (Ovis aries) (UniProt P05979)" classification=TRUE
molecule=Cc1ccccc1NS(=O)(=O)c1ccc(NS(C)(=O)=O)cc1 experimental_system="Prostaglandin G/H synthase 1 (Ovis aries) (UniProt P05979)" classification=FALSE
molecule=O=[N+]([O-])c1ccc(S(=O)(=O)Nc2ccc(Cl)cc2)cc1 experimental_system="Prostaglandin G/H synthase 1 (Ovis aries) (UniProt P05979)" classification=FALSE
molecule=O=[N+]([O-])c1ccc(S(=O)(=O)Nc2ccc(C(F)(F)F)cc2)cc1 experimental_system="Prostaglandin G/H synthase 1 (Ovis aries) (UniProt P05979)" classification=FALSE
molecule=Nc1ccc(NS(=O)(=O)c2ccc(Cl)cc2)cc1 experimental_system="Prostaglandin G/H synthase 1 (Ovis aries) (UniProt P05979)" classification=FALSE
molecule=Cc1cc(C)cc(NS(=O)(=O)c2ccc(NS(C)(=O)=O)cc2)c1 experimental_system="Prostaglandin G/H synthase 1 (Ovis aries) (UniProt P05979)" classification=FALSE
molecule=O=[N+]([O-])c1ccc(S(=O)(=O)Nc2cc(C(F)(F)F)cc(C(F)(F)F)c2)cc1 experimental_system="Prostaglandin G/H synthase 1 (Ovis aries) (UniProt P05979)" classification=FALSE
molecule=CS(=O)(=O)Nc1ccc(S(=O)(=O)Nc2cc(C(F)(F)F)cc(C(F)(F)F)c2)cc1 experimental_system="Prostaglandin G/H synthase 1 (Ovis aries) (UniProt P05979)" classification=FALSE
molecule=O=[N+]([O-])c1ccc(S(=O)(=O)Nc2ccccc2)cc1 experimental_system="Prostaglandin G/H synthase 1 (Ovis aries) (UniProt P05979)" classification=FALSE
molecule=Nc1ccc(S(=O)(=O)Nc2cc(C(F)(F)F)cc(C(F)(F)F)c2)cc1 experimental_system="Prostaglandin G/H synthase 1 (Ovis aries) (UniProt P05979)" classification=TRUE
molecule=Cc1cc(C)cc(NS(=O)(=O)c2ccc([N+](=O)[O-])cc2)c1 experimental_system="Prostaglandin G/H synthase 1 (Ovis aries) (UniProt P05979)" classification=FALSE
molecule=Cc1ccccc1NS(=O)(=O)c1ccc(C(=O)O)cc1 experimental_system="Prostaglandin G/H synthase 1 (Ovis aries) (UniProt P05979)" classification=TRUE
molecule=CCN(c1ccc(Cl)cc1)S(=O)(=O)c1ccc(N)cc1 experimental_system="Prostaglandin G/H synthase 1 (Ovis aries) (UniProt P05979)" classification=FALSE
molecule=Nc1ccc(S(=O)(=O)Nc2ccc(F)cc2)cc1 experimental_system="Prostaglandin G/H synthase 1 (Ovis aries) (UniProt P05979)" classification=FALSE

---

experimental.system: Prostaglandin G/H synthase 1 (Ovis aries) (UniProt P05979)
assay.text: Inhibition of ovine COX1 at 100 uM
Kindly return 1.0 if reported inhibition is no lower than 7%; return 0.0 if it is lower.

molecule=CN(c1ccc(F)cc1)S(=O)(=O)c1ccc(N)cc1 classification=0.0
molecule=Nc1ccc(S(=O)(=O)Nc2ccc(Br)cc2)cc1 classification=1.0
molecule=CCCN(c1ccc(Cl)cc1)S(=O)(=O)c1ccc(N)cc1 classification=0.0
molecule=CN(c1ccc(N)cc1)S(=O)(=O)c1ccc(Cl)cc1 classification=1.0
molecule=Cc1ccc(NS(=O)(=O)c2ccc([N+](=O)[O-])cc2)cc1 classification=1.0
molecule=CN(c1ccc(Cl)cc1)S(=O)(=O)c1cccc(N)c1 classification=1.0
molecule=Cc1ccccc1NS(=O)(=O)c1ccc([N+](=O)[O-])cc1 classification=0.0
molecule=CN(c1ccc(Cl)cc1)S(=O)(=O)c1ccc(N)cc1 classification=1.0
molecule=Nc1ccc(S(=O)(=O)Nc2ccc(I)cc2)cc1 classification=1.0
molecule=Nc1ccc(S(=O)(=O)Nc2ccc(Cl)cc2Cl)cc1 classification=0.0

---

experimental.system: Prostaglandin G/H synthase 1 (Ovis aries)
assay.text: Inhibition of ovine COX1 at 100 uM
Kindly return MET if reported inhibition is no lower than 20%; return NOT MET if it is lower.

molecule=Nc1ccc(S(=O)(=O)Nc2ccccc2Cl)cc1 experimental_system="Prostaglandin G/H synthase 1 (Ovis aries)" classification=MET
molecule=CN(c1ccccc1)S(=O)(=O)c1ccc(N)cc1 experimental_system="Prostaglandin G/H synthase 1 (Ovis aries)" classification=MET
molecule=O=C(O)c1ccc(S(=O)(=O)Nc2ccc(C(F)(F)F)cc2)cc1 experimental_system="Prostaglandin G/H synthase 1 (Ovis aries)" classification="NOT MET"
molecule=Cc1cc(C)cc(NS(=O)(=O)c2ccc(N)cc2)c1 experimental_system="Prostaglandin G/H synthase 1 (Ovis aries)" classification="NOT MET"
molecule=COc1cc(N)ccc1N(C)S(=O)(=O)c1ccc(Cl)cc1 experimental_system="Prostaglandin G/H synthase 1 (Ovis aries)" classification=MET
molecule=CN(c1ccc(Br)cc1)S(=O)(=O)c1ccc(N)cc1 experimental_system="Prostaglandin G/H synthase 1 (Ovis aries)" classification=MET
molecule=COc1ccc(NS(=O)(=O)c2ccc(C(=O)O)cc2)cc1 experimental_system="Prostaglandin G/H synthase 1 (Ovis aries)" classification="NOT MET"
molecule=COc1ccc(NS(=O)(=O)c2ccc(NS(C)(=O)=O)cc2)cc1 experimental_system="Prostaglandin G/H synthase 1 (Ovis aries)" classification="NOT MET"
molecule=Cc1ccc(N(C)S(=O)(=O)c2ccc(N)cc2)cc1 experimental_system="Prostaglandin G/H synthase 1 (Ovis aries)" classification=MET
molecule=Nc1ccc(S(=O)(=O)Nc2ccc(C(F)(F)F)cc2)cc1 experimental_system="Prostaglandin G/H synthase 1 (Ovis aries)" classification="NOT MET"
molecule=Cc1ccccc1NS(=O)(=O)c1ccc(N)cc1 experimental_system="Prostaglandin G/H synthase 1 (Ovis aries)" classification="NOT MET"
molecule=CN(c1ccc(I)cc1)S(=O)(=O)c1ccc(N)cc1 experimental_system="Prostaglandin G/H synthase 1 (Ovis aries)" classification="NOT MET"
